Settings: in methanol, 298.15 K
Parameter: solubility (mole fraction)

INSERT INTO results (molecule, observed_result) VALUES
  ('CC(=O)NC1(C)CCC2CC1C(C)=NC2(C)C (configuration not stated)', 0.00945),
  ('CC1(N=C(O)c2ccccc2)CCC2CC1C(c1ccccc1)=[NH+]C2(C)C.[O-][Cl+3]([O-])([O-])[O-] (configuration not stated)', 0.00289);

* * *

Listing: solubility (mole fraction) of selected compounds
Settings: in acetonitrile, 308.15 K
Parameter: solubility (mole fraction)

INSERT INTO results (compound, observed_result) VALUES
  ('CC(=O)NC1(C)CCC2CC1C(C)=NC2(C)C (configuration not stated)', 0.0275),
  ('CC1(N=C(O)c2ccccc2)CCC2CC1C(c1ccccc1)=[NH+]C2(C)C.[O-][Cl+3]([O-])([O-])[O-] (configuration not stated)', 0.00421);

* * *

Settings: in methanol, 313.15 K
Items are presented alongside their recorded solubility (mole fraction).
Parameter: solubility (mole fraction)

INSERT INTO measurements (compound, parameter, observed_result) VALUES
  ('CC1(N=C(O)c2ccccc2)CCC2CC1C(c1ccccc1)=[NH+]C2(C)C.[O-][Cl+3]([O-])([O-])[O-] (configuration not stated)', 'solubility (mole fraction)', 0.00445),
  ('CC(=O)NC1(C)CCC2CC1C(C)=NC2(C)C (configuration not stated)', 'solubility (mole fraction)', 0.0122);

* * *

Details: in propylene glycol, 303.15 K
Parameter: solubility (mole fraction)

INSERT INTO measurements (compound, parameter, observed_result) VALUES
  ('CC1(N=C(O)c2ccccc2)CCC2CC1C(c1ccccc1)=[NH+]C2(C)C.[O-][Cl+3]([O-])([O-])[O-] (configuration not stated)', 'solubility (mole fraction)', 0.0132),
  ('CC(=O)NC1(C)CCC2CC1C(C)=NC2(C)C (configuration not stated)', 'solubility (mole fraction)', 0.0206);

* * *

Conditions: in acetone, 308.15 K
Parameter: solubility (mole fraction)

INSERT INTO results (compound, observed_result) VALUES
  ('CC(=O)NC1(C)CCC2CC1C(C)=NC2(C)C (configuration not stated)', 0.00411),
  ('CC1(N=C(O)c2ccccc2)CCC2CC1C(c1ccccc1)=[NH+]C2(C)C.[O-][Cl+3]([O-])([O-])[O-] (configuration not stated)', 0.00363);

* * *

Settings: in n-butanol, 303.15 K
Parameter: solubility (mole fraction)

INSERT INTO measurements (compound, parameter, observed_result) VALUES
  ('CC(=O)NC1(C)CCC2CC1C(C)=NC2(C)C (configuration not stated)', 'solubility (mole fraction)', 0.00164),
  ('CC1(N=C(O)c2ccccc2)CCC2CC1C(c1ccccc1)=[NH+]C2(C)C.[O-][Cl+3]([O-])([O-])[O-] (configuration not stated)', 'solubility (mole fraction)', 0.00113);

* * *

Details: in water, 298.15 K
Parameter: solubility (mole fraction)

INSERT INTO measurements (compound, parameter, observed_result) VALUES
  ('CC1(N=C(O)c2ccccc2)CCC2CC1C(c1ccccc1)=[NH+]C2(C)C.[O-][Cl+3]([O-])([O-])[O-] (configuration not stated)', 'solubility (mole fraction)', '3.8e-05'),
  ('CC(=O)NC1(C)CCC2CC1C(C)=NC2(C)C (configuration not stated)', 'solubility (mole fraction)', 0.0012);
